biological target: Cathepsin D (Cat D) (Homo sapiens (Human), UniProt P07339); assay: In vitro enzymatic Cathepsin D (Cat D) FRET assay; type: biochemical; details: read-out: CatD IC50
Sequence (P07339 65-412, species assumed): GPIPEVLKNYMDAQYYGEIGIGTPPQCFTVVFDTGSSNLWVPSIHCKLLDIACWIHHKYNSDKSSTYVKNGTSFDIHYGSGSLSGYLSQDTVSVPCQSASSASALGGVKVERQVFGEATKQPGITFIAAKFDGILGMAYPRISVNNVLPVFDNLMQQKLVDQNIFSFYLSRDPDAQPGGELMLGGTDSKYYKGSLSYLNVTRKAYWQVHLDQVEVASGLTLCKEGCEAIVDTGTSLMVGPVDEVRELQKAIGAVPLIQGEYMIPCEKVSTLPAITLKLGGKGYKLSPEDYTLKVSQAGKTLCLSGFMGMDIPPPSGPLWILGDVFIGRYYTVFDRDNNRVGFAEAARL
pIC50: −log10 of the molar value.
measurement_type: pIC50

// solved cases for pIC50 follow
NC1=N[C@@](c2cc(NC(=O)CC(F)(F)F)ccc2F)(C(F)F)[C@H]2C[C@H]2O1	3.72
Cc1cc(Cl)cnc1C(=O)Nc1ccc(Cl)c([C@@]2(CF)N=C(N)O[C@@H]3C[C@@H]32)c1	3.29
COc1cc(Cl)cnc1C(=O)Nc1cc(C)c(F)c([C@@]2(C(F)F)N=C(N)O[C@@H]3C[C@@H]32)c1	2.95
NC1=N[C@](CF)(c2cccc(NC(=O)c3ccc(Cl)cn3)c2)[C@H]2C[C@H]2O1 (racemic)	3.23
COc1cnc(C(=O)Nc2ccc(Cl)c([C@@]3(CF)N=C(N)O[C@@H]4C[C@@H]43)c2)c(Cl)c1	3.12

A: NC1=N[C@@](c2cc(Nc3nccc4cc(Cl)cnc34)ccc2F)(C(F)F)[C@H]2C[C@H]2O1
B: C#CCOc1cnc(C(=O)Nc2cc(F)c(F)c([C@@]3(CF)N=C(N)O[C@@H]4C[C@@H]43)c2)cn1
Problem: Which record would sort first by descending pIC50, A or B ? Kindly give the label for the entry you pick.
Solution: B
(B: 3.94, A: 3.40)

* * *

molecular target: Cathepsin D (Cat D) (Homo sapiens (Human)); experiment: In vitro enzymatic Cathepsin D (Cat D) FRET assay; assay type: biochemical; conditions: read-out: CatD IC50
measurement_type: IC50 (µM)

// solved cases for IC50 follow
NC1=N[C@@](c2cc(Nc3ncc(F)c4cc(C#CC5CC5)cnc34)ccc2F)(C(F)F)[C@H]2C[C@H]2O1 [Example 408]	347
NC1=N[C@@](c2cc(N[C@H](c3ccc(Cl)cn3)C(F)(F)F)ccc2F)(C(F)F)[C@H]2C[C@H]2O1 (mixture of isomers) [Example 422]	68.2
C#CCOc1cnc(C(=O)Nc2ccc(F)c([C@@]3(C(F)F)N=C(N)O[C@@H]4C[C@@H]43)c2)cn1 [Example 95]	143

a: NC1=N[C@@](c2cc(NC(=O)c3cnc(OCc4cnco4)cn3)ccc2F)(C(F)F)[C@H]2C[C@H]2O1 [Example 171]
b: COc1ccc(C(=O)Nc2cc(C)c(F)c([C@@]3(C(F)F)N=C(N)O[C@@H]4C[C@@H]43)c2)nc1 [Example 304]
Problem: Hi there, can you help? I need to know whether a or b has lower measured IC50. Kindly give the label for the entry you pick.
Solution: b
(b: 355 µM, a: 846 µM)

* * *

molecular target: Cathepsin D (Cat D) (Homo sapiens (Human), UniProt P07339); experiment: In vitro enzymatic Cathepsin D (Cat D) FRET assay; format: biochemical; conditions: read-out: CatD IC50
measurement_type: IC50 (µM)

// solved cases for IC50 follow
NC1=N[C@](CF)(c2cc(NC(=O)c3ncc(Cl)cc3Cl)ccc2Cl)[C@H]2C[C@H]2O1	2870
NC1=N[C@@](c2cc(NC(=O)c3ccc(Cl)cn3)ccc2Cl)(C(F)F)[C@H]2C[C@H]2O1 (racemic) [Example 97]	1280
Cc1cc(NC(=O)c2ncc(C#N)cc2Cl)cc([C@@]2(C(F)F)N=C(N)O[C@@H]3C[C@@H]32)c1F	558
CC(C)n1cc(Cl)c(C(=O)Nc2ccc(F)c([C@@]3(C(F)F)N=C(N)O[C@@H]4C[C@@H]43)c2)n1	295
C[C@@]1(c2nc(NC(=O)c3ncc(Cl)cc3Cl)ccc2F)N=C(N)O[C@H]2C[C@H]21	1610
Cc1nc(OCC(F)(F)F)cnc1C(=O)Nc1cc(F)c(Cl)c([C@]2(CF)N=C(N)O[C@H]3C[C@H]32)c1 (racemic) [Example 159]	1050

1: NC1=N[C@@](c2cc(NC(=O)c3csc(Cl)c3)ccc2F)(C(F)F)[C@H]2C[C@H]2O1
2: Cc1cc(OC(F)F)cnc1C(=O)Nc1cc(F)c(Cl)c([C@]2(CF)N=C(N)O[C@H]3C[C@H]32)c1 [Example 157]
3: NC1=N[C@@](c2cc(NC(=O)c3ccc(OCC(F)(F)F)cn3)ccc2F)(C(F)F)[C@H]2C[C@H]2O1
4: Cc1cc(C#N)cnc1C(=O)Nc1cc(F)c(F)c([C@@]2(CF)N=C(N)O[C@@H]3C[C@@H]32)c1 (stereo in doubt) [Example 50]
Problem: Rank by IC50 (largest to smallest). Give your ranking as a list of the labels in the requested order.
Solution: 3, 4, 1, 2
(3: 4250 µM, 4: 1750 µM, 1: 580 µM, 2: 396 µM)

* * *

target: Beta Secretase enzyme (BACE) (Homo sapiens (Human)); test: In vitro enzymatic BACE FRET assay; format: biochemical; conditions: read-out: BACE1 Enzyme assay IC50
Sequence (P56817 46-501): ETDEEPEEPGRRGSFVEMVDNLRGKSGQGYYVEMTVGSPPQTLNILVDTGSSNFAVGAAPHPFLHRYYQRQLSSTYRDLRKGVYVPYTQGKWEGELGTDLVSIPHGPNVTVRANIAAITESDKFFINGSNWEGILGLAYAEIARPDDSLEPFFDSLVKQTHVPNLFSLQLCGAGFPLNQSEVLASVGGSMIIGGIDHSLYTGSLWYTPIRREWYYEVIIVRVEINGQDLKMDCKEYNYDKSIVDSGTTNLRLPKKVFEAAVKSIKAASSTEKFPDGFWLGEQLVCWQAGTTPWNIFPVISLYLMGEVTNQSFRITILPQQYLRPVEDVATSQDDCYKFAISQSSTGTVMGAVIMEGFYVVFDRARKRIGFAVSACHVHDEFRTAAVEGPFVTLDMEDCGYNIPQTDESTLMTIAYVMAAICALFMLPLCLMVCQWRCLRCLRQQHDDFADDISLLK
measurement_type: IC50 (nM)

// solved cases for IC50 follow
Cc1cc(C#N)cnc1C(=O)Nc1cc(F)c(C)c([C@@]2(C(F)F)N=C(N)O[C@@H]3C[C@@H]32)c1 (racemic) [Example 309]	74.3
NC1=N[C@](c2cc(NC(=O)c3ccc(Cl)cn3)ccc2F)(C(F)F)[C@@H]2C[C@@H]2O1 (racemic) [Example 55]	36.2
CC(C)Oc1cnc2c(Nc3cc(Cl)c(F)c([C@@]4(CF)N=C(N)O[C@@H]5C[C@@H]54)c3)nccc2n1 [Example 357]	375
N#Cc1cnc2c(Nc3ccc(F)c([C@@]4(CF)N=C(N)O[C@@H]5C[C@@H]54)c3)ncc(F)c2c1 [Example 343]	94.9
NC1=N[C@@](c2cc(NC(=O)c3ncc(Cl)cc3CF)ccc2F)(C(F)F)[C@H]2C[C@H]2O1 [Example 308]	17.7
Cc1ncc(Cl)nc1C(=O)Nc1ccc(F)c([C@@]2(C(F)F)N=C(N)O[C@@H]3C[C@@H]32)c1 (stereo in doubt) [Example 54]	2510

P: CC#CCOc1cnc(C(=O)Nc2ccc(F)c([C@@]3(C)N=C(N)O[C@@H]4C[C@@H]43)c2)c(C)c1 [Example 56]
Q: Cc1ccc(C(=O)Nc2ccc(F)c([C@@]3(C(F)F)N=C(N)O[C@@H]4C[C@@H]43)c2)nc1 [Example 190]
R: Cc1cc(OC(F)F)cnc1C(=O)Nc1cc(Cl)c(F)c([C@@]2(CF)N=C(N)O[C@@H]3C[C@@H]32)c1 [Example 87]
Problem: Form: Sort by [IC50] Order [ ascending ] Give your ranking as a list of the labels in the requested order.
Solution: P, R, Q
(P: 12.9 nM, R: 32.3 nM, Q: 151 nM)

* * *

biological target: Beta Secretase enzyme (BACE) (Homo sapiens (Human)); assay: In vitro enzymatic BACE FRET assay; format: biochemical; settings: read-out: BACE1 Enzyme assay IC50
measurement_type: IC50 (nM)

// solved cases for IC50 follow
Cc1cc(Cl)cnc1C(=O)Nc1ccc(F)c([C@@]2(CF)N=C(N)O[C@@H]3C[C@@H]32)c1	33.8
NC1=N[C@@](c2cc(-n3cc(C#CC4CC4)cn3)ccc2F)(C(F)F)[C@H]2C[C@H]2O1	8620
N#Cc1ccc(C(=O)Nc2ccc(F)c([C@@]3(C(F)F)N=C(N)O[C@@H]4C[C@@H]43)n2)nc1 [Example 331]	26700
NC1=N[C@](CF)(c2cc(NC(=O)c3ccc(Cl)cn3)cnc2F)[C@H]2C[C@H]2O1	165
Cc1cc(C#N)cnc1C(=O)Nc1cc(F)c(Cl)c([C@]2(CF)N=C(N)O[C@H]3C[C@H]32)c1 (racemic) [Example 137]	44.8

A: Cc1c(C(=O)Nc2ccc(F)c([C@]3(C(F)F)N=C(N)O[C@H]4C[C@H]43)c2)nc2ccc(Cl)cn12 (racemic)
B: NC1=N[C@@](CF)(c2cc(NC(=O)c3ccc(Br)cn3)ccc2Cl)[C@@H]2C[C@@H]2O1
Problem: Hi there, can you help? I need to know whether A or B has lower measured IC50. Kindly give the label for the entry you pick.
Solution: A

1: Cc1cc(OC(F)F)cnc1C(=O)Nc1cc(F)c(Cl)c([C@]2(CF)N=C(N)O[C@H]3C[C@H]32)c1 [Example 157]
2: NC1=N[C@@](c2cc(NC(=O)c3ccc(OCF)cn3)ccc2F)(C(F)F)[C@H]2C[C@H]2O1
Problem: Hi there, can you help? I need to know whether 1 or 2 has lower measured IC50. Kindly give the label for the entry you pick.
Solution: 2
(2: 91.8 nM, 1: 28300 nM)

I: COc1cnc(C(=O)Nc2cc(F)c(Cl)c([C@]3(CF)N=C(N)O[C@H]4C[C@H]43)c2)cn1 (racemic) [Example 152]
II: NC1=N[C@@](c2cc(NCC3(c4ccc(Cl)cc4)CC3)ccc2F)(C(F)F)[C@H]2C[C@H]2O1
Problem: Hi there, can you help? I need to know whether I or II has lower measured IC50. Kindly give the label for the entry you pick.
Solution: I

P: NC1=N[C@](CF)(c2cc(NC(=O)c3cnc(OCC(F)(F)F)cn3)cc(Cl)c2F)[C@H]2C[C@H]2O1
Q: CN(C)c1cc(C#N)cnc1C(=O)Nc1ccc(F)c([C@@]2(C(F)F)N=C(N)O[C@@H]3C[C@@H]32)c1
R: NC1=N[C@@](c2cc(NC(=O)C3CC(=O)C3)ccc2F)(C(F)F)[C@H]2C[C@H]2O1
Problem: Form: Sort by [IC50] Order [ ascending ] Give your ranking as a list of the labels in the requested order.
Solution: P, Q, R
(P: 13.6 nM, Q: 91.5 nM, R: 20100 nM)
